# System: OVCAR-3 ovarian
# method notes: NCI-60 one-dose screen, 48 h
# protocol conditions: 10 µM unless noted
The panel holds about 83,000 compounds, 20% with a hit somewhere; the sample as a whole holds those more often. Activity calls are given as the source filed them. The calls were made as follows: active = growth percent below 10; inactive = the rest.
Answer with one of the outcomes TRUE for active, FALSE for inactive

Example cases with answers are listed next.
COc1cc2ncnc(Nc3ccc(F)c(Cl)c3)c2cc1OCC(=O)N1CCN(C)CC1: FALSE
COC(=O)[C@@H](C[C@H](Cc1ccccc1)NC(=O)c1csc([C@@H](C[C@H](C(C)C)N(C)C(=O)[C@@H](NC(=O)[C@H]2CCCCN2C)C(C)C)OC(C)=O)n1)NC(=O)OCc1ccccc1: TRUE
C=CC[PH+](c1ccccc1)c1ccccc1.C=CC[PH+](c1ccccc1)c1ccccc1.[Cl][Pt][Cl]: TRUE

-- ask Record lookup: outcome of this test for `C=CCc1cc2c(cc1OCC)OCO2` ?
-- reply FALSE

---

# Tested on: NCI-H23 lung
# method notes: NCI-60 one-dose screen, 48 h (100 = growth as untreated, 0 = no growth, -100 = all killed)
# protocol conditions: 10 µM unless noted
About 83,000 compounds went through this panel and 20% of them were active in at least one assay; those are over-represented in the sample as a whole.
Use growth to assign classes; range list: low value (below 20%), medium value (20% to below 80%), high value (80% or more)

COc1cc(NCCCN=C(N)N)c2ncccc2c1: low value
COC(=O)[C@@H](C)C[C@H](Cc1ccccc1)NC(=O)c1nc([C@@H](C[C@H](C(C)C)N(C)C(=O)[C@@H](NC(=O)[C@H]2CCCCN2C)C(C)C)OC(C)=O)sc1C(C)C: medium value
COc1ccc(N(CC(=O)NCCC[Te]c2ccccc2)C(=O)CCSC2=C(C)C(=O)c3ccccc3C2=O)cc1: low value
COc1cc(C=C2c3ccccc3C(=O)c3ccccc32)ccc1OCCCCOc1cc2c(cc1OC)C(=O)N1CCCC1C=N2 (configuration not stated): low value
COc1ccc(Nc2ccc([N+](=O)[O-])cc2[N+](=O)[O-])cc1CN(CCCl)CCCl: low value

-- ask For this molecule, which bin applies? `C[C@]12CCc3sc(-c4ccccc4O)nc3C1=CC[C@@H]1[C@@H]2CC[C@]2(C)C(=O)CC[C@@H]12`
-- reply high value

---

# System: SNB-75 CNS
# method notes: NCI-60 one-dose screen, 48 h (100 = growth as untreated, 0 = no growth, -100 = all killed)
# protocol conditions: 10 µM unless noted
The panel holds about 83,000 compounds, 20% with a hit somewhere; the sample as a whole holds those more often.
// boundary case: growth equal to 60% maps to False; strictly smaller maps to True

Examples with answers:
CC(=O)O[C@H]1C(=O)[C@@]2(C)[C@H]([C@H](OC(=O)c3ccccc3)[C@]3(O)C[C@H](OC(=O)[C@H](OC(=O)OCC4COC(C)(C)O4)[C@@H](NC(=O)c4ccccc4)c4ccccc4)C(C)=C1C3(C)C)[C@]1(OC(C)=O)CO[C@@H]1C[C@@H]2O (some centres undefined): True
CN1C(=O)N[C@H]2[C@@H]3NC(=O)c4ccc(Br)n4[C@@H]3C[C@]21O: True
CC1(C)C(C(=O)c2cn(CCCCF)c3ccccc23)C1(C)C: False
CCCCNC(c1ccc(Cl)cc1)C(O)c1ccc(Cl)cc1 (centres undefined): False
CCCCCCCCCCCCCC[P+](CCCCCC)(CCCCCC)CCCCCC: True

-- ask Is the reported growth for Nc1nc([Se])c2ncn(C3OC(CO)C(O)C3O)c2n1 (centres undefined) strictly below 60%?
-- reply False

-- ask hey, is growth for `CC[S][Hg][Cl]` lower than 60% or not?
-- reply False

-- ask For `Cn1cc(C=O)c2nccnc21` , is the recorded growth below the cut-off of 60%?
-- reply False

Source listed as PubChem BioAssay (NCI).
